tested on: Syncephalastrum racemosum; assay: Antimicrobial activity against Syncephalastrum racemosum at 1.25 ug/mL by agar diffusion method; format: functional; settings: read-out: IZ
Parameter threshold = 8 mm. Response is YES when zone of inhibition at 1.25 µg/mL meets or exceeds it, else NO.

Worked cases, answers included:
CN(C/C=C/C#CC(C)(C)C)Cc1cccc2ccccc12    YES
O=C1/C(=N/Nc2ccc([N+](=O)[O-])cc2)CCCc2ccccc21    NO
Cc1ccc(N/N=C2\CCCc3ccccc3C2=O)cc1    NO
c1ccc2c(c1)CCCc1nnc3nncn3c1-2    NO
CC(=O)c1ccc(N/N=C2\CCCc3ccccc3C2=O)cc1    NO
O=C1/C(=N/Nc2cccc(Cl)c2)CCCc2ccccc21    NO

Query molecule follows.
In: Please check the record `O=C1/C(=N/Nc2cccc([N+](=O)[O-])c2)CCCc2ccccc21` and state if its zone of inhibition at 1.25 µg/mL is at or above 8 mm.
Out: YES

---

Each entry below carries its recorded zone of inhibition at 5 µg/mL.
test system: Staphylococcus aureus; assay: Antimicrobial activity against Staphylococcus aureus at 5 ug/mL by agar diffusion method; assay type: functional; conditions: read-out: IZ
Give the value, in units of mm, as a plain number.

O=C1/C(=N/Nc2cccc(Cl)c2)CCCc2ccccc21    12

In: API: value(readout=zone of inhibition at 5 µg/mL, system=Staphylococcus aureus) for record `Cc1ccc(N/N=C2\CCCc3ccccc3C2=O)cc1`
Out: 12

In: Under Staphylococcus aureus: zone of inhibition at 5 µg/mL value of `c1ccc2c(c1)CCCc1nnc3nncn3c1-2` ?
Out: 14

In: What reported zone of inhibition at 5 µg/mL corresponds to `CN(C/C=C/C#CC(C)(C)C)Cc1cccc2ccccc12` on Staphylococcus aureus?
Out: 15

In: Field: zone of inhibition at 5 µg/mL (Staphylococcus aureus). Entry: `CC(=O)c1ccc(N/N=C2\CCCc3ccccc3C2=O)cc1`
Out: 15

In: Value wanted: zone of inhibition at 5 µg/mL (Staphylococcus aureus) of entry `O=C1/C(=N/Nc2cccc([N+](=O)[O-])c2)CCCc2ccccc21`
Out: 10

In: Request: zone of inhibition at 5 µg/mL, test system Staphylococcus aureus, entry `O=C1/C(=N/Nc2ccc([N+](=O)[O-])cc2)CCCc2ccccc21`
Out: 9

In: So what zone of inhibition at 5 µg/mL did `Cc1cccc(N/N=C2\CCCc3ccccc3C2=O)c1` get with Staphylococcus aureus?
Out: 12

---

Property: zone of inhibition at 5 µg/mL; scope: individual compounds
test system: Escherichia coli; assay: Antimicrobial activity against Escherichia coli at 5 ug/mL by agar diffusion method; type: functional; settings: read-out: IZ
Write down the numeric answer in mm and omit the unit.

Known results for compounds:
Cc1ccc(N/N=C2\CCCc3ccccc3C2=O)cc1    7
O=C1/C(=N/Nc2cccc([N+](=O)[O-])c2)CCCc2ccccc21    12
c1ccc2c(c1)CCCc1nnc3nncn3c1-2    9
CN(C/C=C/C#CC(C)(C)C)Cc1cccc2ccccc12    27
CC(=O)c1ccc(N/N=C2\CCCc3ccccc3C2=O)cc1    12

In: Sample `O=C1/C(=N/Nc2ccc([N+](=O)[O-])cc2)CCCc2ccccc21` — what was its zone of inhibition at 5 µg/mL?
Out: 8

In: Look up zone of inhibition at 5 µg/mL for this compound: `Cc1cccc(N/N=C2\CCCc3ccccc3C2=O)c1`
Out: 12

In: So what's the measured zone of inhibition at 5 µg/mL for this one? `O=C1/C(=N/Nc2cccc(Cl)c2)CCCc2ccccc21`
Out: 9
